# experimental-system: Cannabinoid receptor 1 (Homo sapiens)
# Sequence (P21554 whole entry): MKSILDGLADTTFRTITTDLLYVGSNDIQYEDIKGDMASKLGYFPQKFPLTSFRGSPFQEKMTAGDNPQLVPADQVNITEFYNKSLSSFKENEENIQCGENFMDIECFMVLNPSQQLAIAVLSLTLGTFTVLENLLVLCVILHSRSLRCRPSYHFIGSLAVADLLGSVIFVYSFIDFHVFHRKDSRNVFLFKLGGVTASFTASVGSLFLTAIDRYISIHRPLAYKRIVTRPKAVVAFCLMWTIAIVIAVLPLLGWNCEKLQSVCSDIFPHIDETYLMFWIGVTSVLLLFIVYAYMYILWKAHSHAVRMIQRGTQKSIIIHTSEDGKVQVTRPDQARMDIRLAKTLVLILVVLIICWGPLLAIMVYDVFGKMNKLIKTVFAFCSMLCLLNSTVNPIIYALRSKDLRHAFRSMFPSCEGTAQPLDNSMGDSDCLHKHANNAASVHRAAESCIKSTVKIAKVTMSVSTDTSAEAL
# measurement-protocol: Binding affinity towards Cannabinoid receptor 1 using CP-55940 as radioligand in HEK293 EBNA cells
# Type: cell-based
endpoint: pKi
Just the number, please; pKi means minus log10 of the concentration in mol/L.

Worked examples follow.
CC1=CC[C@@H]2[C@@H](C1)c1c(O)cc(C(C)(C)c3ccccc3)cc1OC2(C)C | 7.91
CC1=CC[C@@H]2[C@@H](C1)c1c(O)cc(Cc3ccccc3)cc1OC2(C)C | 7.17
CC1=CC[C@@H]2[C@@H](C1)c1c(O)cc(C(C)(C)C3CCCCC3)cc1OC2(C)C | 9.24

Kindly review the next compound as well.
-- ask System Cannabinoid receptor 1 (Homo sapiens). Read-out pKi. Item CC1=CC[C@@H]2[C@@H](C1)c1c(O)cc(C3(c4ccccc4)SCCS3)cc1OC2(C)C . Report value.
-- reply 7.76

---

# experimental-system: Cannabinoid receptor 1 (Homo sapiens)
# measurement-protocol: Binding affinity towards Cannabinoid receptor 1
endpoint: Ki (nM)
Answer with a number only, understood to be in nM.

-- ask State, in one line, measured Ki of CC1=CC[C@@H]2[C@@H](C1)c1c(O)cc(C3(C4CCCCC4)SCCS3)cc1OC2(C)C
-- reply 1.86
